# System: NEK3;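 note: KINOMEscan kinase panel screen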
# Details: concentration: 1 μM, replicates: in singlicate; n = 1
Property: %Inh (%)

INSERT INTO results (compound, test_target, experimental_value) VALUES
  ('Cc1ccc(NC(=O)Nc2ccccc2)cc1-c1ccc(C(=O)Nc2ccncc2)cc1', 'NEK3', 0),
  ('Cn1cncc1C(=O)NC1CCN(c2ccnc(Nc3ccc(F)cc3)n2)C1 (centres unmarked)', 'NEK3', 21),
  ('COc1ccc(Nc2nccc(N3CCC(NC(=O)c4cc5ccccc5s4)C3)n2)cc1 (centres unmarked)', 'NEK3', 15),
  ('CS(=O)(=O)Cc1ccc(Nc2nccc(-c3c(-c4cccc(NC(=O)C5CCCCC5)c4)nn4ncccc34)n2)cc1', 'NEK3', 32),
  ('CS(=O)(=O)CCNCc1nc(-c2ccc3ncnc(Nc4ccc(OCc5ccccc5)c(Cl)c4)c3c2)cs1.Cl', 'NEK3', 0),
  ('Cn1cncc1-c1cc2c(Nc3ccc(OCc4ccccc4)cc3)ncnc2cn1', 'NEK3', 0),
  ('Cc1ccc(NC(=O)Nc2ccc(Cl)c(C(F)(F)F)c2)cc1-c1ccc(C(=O)Nc2ccncc2)cc1', 'NEK3', 2),
  ('Cc1c(Cn2c3ccccc3n3c(=O)cc(N4CCOCC4)nc23)cccc1C(F)(F)F', 'NEK3', 0);
